assay: Phase 1 fixed-sequence drug-drug interaction study: plasma pharmacokinetics of single-dose fedratinib with and without fluconazole; format: in vivo, human; details: both sexes, human, plasma; fedratinib 100 mg single oral dose alone, fasted, healthy adults, n = 16; read-out: Cmax, geometric mean (geometric CV%)
Observed property: Cmax (ng/mL)
One number for each entry, in ng/mL.

Short answer for Cc1cnc(Nc2ccc(OCCN3CCCC3)cc2)nc1Nc1cccc(S(=O)(=O)NC(C)(C)C)c1 [fedratinib] : Cmax was 121

----------
test: Phase 1 fixed-sequence drug-drug interaction study: plasma pharmacokinetics of single-dose fedratinib with and without fluconazole; type: in vivo, human; settings: both sexes, human, plasma; fedratinib 100 mg single oral dose alone, n = 7; read-out: Vz/F, geometric mean (geometric CV%)
Observed property: Vd/F (L)
Give bare numbers, in L.

Lab note: Cc1cnc(Nc2ccc(OCCN3CCCC3)cc2)nc1Nc1cccc(S(=O)(=O)NC(C)(C)C)c1 gave Vd/F of 6500
